- Tested on: DU-145
- protocol_notes: NCI tumour cell line growth inhibition, 48 h
Calls of active or inactive are those of the source. Rule as the data show it: active = GI50 up to about 1.1 µM and inactive = higher.
quantity_name: GI50

// fetch GI50 given entry CCOC(=O)CC1C(O)C(=O)N(C)C1c1ccccc1 (centres undefined)
> 100 µM (inactive)

Provide one value: measured GI50 of O=c1c2cc([N+](=O)[O-])ccc2n(Cc2ccccc2)n1Cc1ccccc1
17.3 µM (inactive)

Give the measured GI50 for C1CCN(CCC2CCCCN2)CC1 (centres undefined)
> 100 µM (inactive)

Identify GI50 associated with the compound CSc1nc(Nc2cccc(C(F)(F)F)c2)c2c(N)nn(C)c2n1
> 100 µM (inactive)

Quote GI50 reported for O=C(O)c1cc(-c2ccncc2)nc2ccccc12 please.
> 100 µM (inactive)

State its GI50 for this compound: Cc1ccc(C(=O)Nc2ccc(CP(=O)(O)O)cc2CP(=O)(O)O)cc1NC(=O)c1cccc(NC(=O)Nc2cccc(C(=O)Nc3cc(C(=O)Nc4ccc(CP(=O)(O)O)cc4CP(=O)(O)O)ccc3C)c2)c1
> 100 µM (inactive)

Output measured GI50 for this item: N#CCCN(CCC#N)c1ccc(/C=C2\N=C(c3ccccc3)N(c3ccc(C(=O)O)cc3)C2=O)cc1
69.2 µM (inactive)

Annotate the compound CC(=O)OC1CCC2(C)C(=CC(C3C=C4CC(OC(C)=O)CCC4(C)C4=C3C3CC5OC6(CCC(C)CO6)C(C)C5C3(C)CC4)C3=C2CCC2(C)C3CC3OC4(CCC(C)CO4)C(C)C32)C1 (centres undefined) with its measured GI50.
14.2 µM (inactive)

Determine from records and report GI50 for CC1CCN(C(C)C)P(=S)(Cc2ccccc2)O1 (centres undefined)
> 100 µM (inactive)

Look up GI50 of CC1CSC(=S)N1C(=O)N1C(=S)SCC1C (centres undefined) and report it.
19.5 µM (inactive)

Given COC(=O)C1=C2SCc3cccc(c3)CSC3=C(C(=O)OC)SC(=C(S2)S1)S3 , respond with its GI50.
> 100 µM (inactive)

Output GI50 of Cc1nc2sc(C(=O)c3ccc(Cl)cc3)c(N)c2c(-c2ccccc2Cl)c1C(=O)Nc1ccccc1
19.1 µM (inactive)

Fill in GI50 for record CCOC(=O)n1cncc1CC(NC(=O)Cc1c(C(=O)C=C(C)C)[nH]c2ccccc12)C(=O)OC (centres undefined)
18.5 µM (inactive)

Return GI50 for the following compound: NS(=O)(=O)c1ccc(/N=N/c2ccc(O)c(C(=O)O)c2)cc1 [SALAZOSULFAMIDE]
> 100 µM (inactive)

Name the recorded GI50 of the item Cc1cc2c(cc1Cl)SSc1cc(Cl)c(C)cc1S(=O)(=O)Nc1nc(N)nn1C(O)n1nc(N)nc1NS2(=O)=O in your answer.
> 10 µM (inactive)

Look up GI50 of Clc1ccc(/C=C/c2nc(-c3ccccc3)cn3c2nc2ccccc23)cc1Cl and report it.
> 100 µM (inactive)

Supply recorded GI50 for NC(CP(=O)(O)O)C(=O)O (centres undefined) here.
> 100 µM (inactive)

Entry COc1ccc(/C=C2\C(=O)N(C)C(=O)c3cc(OC)c(OC)cc32)cc1OC needs its GI50 filled in; supply it.
25.3 µM (inactive)

State its GI50 for this compound: CCOC(=O)c1c(C)nc2c3ccccc3c(C#N)c(C)n12
74.8 µM (inactive)

----------
- Tested on: KM12
- protocol_notes: NCI tumour cell line growth inhibition, 48 h
Calls of active or inactive are those of the source. Cut-off read from the data, not from the text of the source: active = GI50 up to about 1.1 µM and inactive = higher.
Assign GI50 to each entry below.

Tell us which GI50 value is on record for CCOC(=O)c1c(C)nc2c3ccccc3c(C#N)c(C)n12
> 100 µM (inactive)

Report GI50, nothing else, for this molecule: O=C(O)C(CSC(c1ccccc1)(c1ccccc1)c1ccccc1)/N=C/c1cccs1 (configuration not stated)
2.78 µM (inactive)

Report GI50 for CCCCCCCCCCNCCSSCc1ccc(Cl)cc1
1.36 µM (inactive)

Return GI50 (reported value) for this molecule: O=[N+]([O-])CCc1cccc([N+](=O)[O-])c1
> 100 µM (inactive)

Specify reported GI50 for the molecule shown: C#CCCCOc1ncccn1
> 100 µM (inactive)

Given the molecule CCCN(CCCCC(NC(C)=O)C(=O)NCc1ccccc1)C(=O)NCCCl (configuration not stated) , write its reported GI50.
> 100 µM (inactive)

Please supply the value of reported GI50 for the item Clc1ccc(-c2nn3c(C45CC6CC(CC(C6)C4)C5)nnc3s2)cc1
> 100 µM (inactive)

Return GI50 for the following molecule: CC(=O)Oc1ccc2c(c1)O/C(=C\c1ccc(N(C)C)cc1)C2=O
90.8 µM (inactive)

Indicate its recorded GI50; the molecule in question is Oc1c(Cl)cc(CN(Cc2cc(Cl)c(O)c(Cl)c2)C2CCCCC2)cc1Cl
> 100 µM (inactive)

Write down GI50 measured for item NS(=O)(=O)c1nn2c(Br)c(-c3ccccc3)nc2s1
4.85 µM (inactive)

Consider the molecule O=C(CP(=O)(O)O)c1cccs1 and give its recorded GI50.
> 100 µM (inactive)

State, in one line, measured GI50 of O=C1NC(=O)C(c2c[nH]c3cc(Br)ccc23)=C1c1cnc[nH]1
21.1 µM (inactive)

----------
So I've got a bunch of molecules here, and I need their GI50 values.
- Tested on: A498
- protocol_notes: NCI tumour cell line growth inhibition, 48 h
Active and inactive are the calls of the source. Cut-off read from the data, not from the text of the source: active = GI50 up to about 1.1 µM and inactive = higher.

Identify measured GI50 corresponding to CN1C[C@@H]2CCCN2P1Oc1cccc2cccnc12 (some centres undefined)
> 100 µM (inactive)

For the molecule COc1ccc(CC2c3cc4c(cc3CCN2C)OCO4)c(C=O)c1OC (centres undefined) , give its measured GI50 value.
> 100 µM (inactive)

For the molecule N/C(=N\c1ccc(Cl)cc1)NS(=O)(=O)c1cccc2nsnc12 , give its measured GI50 value.
15.6 µM (inactive)

Return reported GI50. Input molecule: Cc1cc(N(CCC#N)CCC#N)ccc1/C=C1N=C(/C=C\c2ccccc2)N(c2ccc(Cl)cc2)C\1=O
> 100 µM (inactive)

State its GI50: COc1ccc(/C=C2\C(=O)N(C)C(=O)c3cc(OC)c(OC)cc32)cc1OC
27.4 µM (inactive)

For the molecule O=c1c2c3c(sc2nc2n1N=CN(c1ccc(F)cc1)C2)CCCC3 , give its reported GI50.
> 100 µM (inactive)

Provide one value: measured GI50 of CC(C)=CCC[C@@H](C)C1=C(O)C(=O)C(C)=C(Nc2ccccc2I)C1=O
5.43 µM (inactive)

Identify measured GI50 associated with CN1CN(c2ccccc2)C2(CCN(CCCC3(c4cccs4)OCCO3)CC2)C1=O
> 100 µM (inactive)

Answer with the recorded GI50 for the molecule listed here: CC(=O)OCC1OC(n2c(=O)n(-c3ccccc3)c(=O)c3ccccc32)C(OC(C)=O)C(OC(C)=O)C1OC(C)=O (centres undefined)
> 100 µM (inactive)

State, in one line, measured GI50 of C1CSCCSCCCS[C@@H]2CCCCC2SC1 (some centres undefined)
> 100 µM (inactive)

Complete the entry with GI50 for C#CCNC(=O)NC(CCCNC(=O)OCc1ccccc1)C(=O)OCc1ccccc1 (centres undefined)
> 100 µM (inactive)

Look up and state reported GI50 for CC1CSC(=S)N1C(=O)N1C(=S)SCC1C (centres undefined)
27.5 µM (inactive)

Entry O=C1N=C2SC(=S)N=C(S)N2NC12c1ccccc1-c1ccccc12 needs its GI50 filled in; supply it.
1.55 µM (inactive)

Quick one: give measured GI50 for Cc1cc(C)c2c(O)cc(-c3cccc4ccccc34)nc2n1
0.474 µM (active)

Give the reported value of GI50 for this record: Nc1ccc2nc(-c3ccccn3)c(-c3ccccn3)nc2c1
> 100 µM (inactive)

Please report GI50 for the following molecule: O=C(OCCC12CC3CC(CC(C3)C1)C2)c1ccc(NCc2cc(O)ccc2O)cc1
1.9 µM (inactive)

Quote GI50 reported for O=C1/C(=N\n2c(S)nnc2-c2ccncc2)c2cc(Cl)ccc2N1CN1CCCCC1 please.
50.9 µM (inactive)

Using known records, supply GI50 for CC12c3c4ccc(C=O)c3Oc3ccc(C=O)c(c31)Oc1ccc(C=O)c(c12)O4
> 25 µM (inactive)

Determine its reported GI50: COc1cc(C(c2ccc3c(c2)OCO3)N2C(=O)CCC2C(=O)O)cc(OC)c1OC (centres undefined)
> 100 µM (inactive)

Please give measured GI50 of the following entry: CN(C)c1ccc(/C=N/NC2=N/C(=C\c3ccco3)C(=O)N2)cc1
> 100 µM (inactive)

Specify GI50 for O=C(NCCCCCCCCCCCCNC(=O)c1cnc2ccccc2n1)c1cnc2ccccc2n1 and stop.
24.9 µM (inactive)

Supply reported GI50 belonging to this molecule: CSC(SC)=C1C(=O)N(c2ccccc2)N=C1C
29.4 µM (inactive)

Answer with the recorded GI50 for the molecule listed here: Cc1oc2nc1C(=O)NCc1nc(cs1)C(=O)N[C@H](C(C)C)c1nc(cs1)C(=O)N[C@H]2C
> 100 µM (inactive)

Give me measured GI50, please, for this molecule: O=C(O)c1cccc2cccc(-c3cccc4cccc(C(=O)O)c34)c12
> 100 µM (inactive)

Recall and state the measured GI50 for CC1=CC(=O)c2cccc(O)c2C1=O .
18.5 µM (inactive)

Fill in GI50 for record CCOC(=O)[C@H]1CSC[C@@H](C(=O)OC)N1
> 100 µM (inactive)

Answer with the recorded GI50 of Cc1nc2sc(C(=O)c3ccc(Cl)cc3)c(N)c2c(-c2ccccc2Cl)c1C(=O)Nc1ccccc1 only.
21.3 µM (inactive)

Return GI50 for the following molecule: COc1ccc(C2=NOP(c3ccccc3)(c3ccccc3)(c3ccccc3)C2)cc1
33.3 µM (inactive)

Answer with the recorded GI50 for the molecule listed here: CCc1ccc2nc(-c3ccc(O)cc3)sc2c1
18 µM (inactive)
